The entries below come with measured pIC50 values attached.
- subjectOfTest: human NaV1.1 (Homo sapiens (Human))
- experimentalDetails: Sodium Influx Assay (Flux), NaV1.1
- conditionInfo: Trex HEK293 cells, ANG2 dye; arithmetic mean
pIC50: −log10 of the molar value.
assayEndpoint: pIC50

# molecule, testResult
data = [
    ("C[C@H]1CN(Cc2ccccc2)C[C@@H]1Nc1ccc(S(=O)(=O)Nc2nccs2)cc1Cl (relative stereo)", 5.81),
    ("O=S(=O)(Nc1cscn1)c1ccc(O[C@@H]2C[C@H]3CC[C@@H](C2)N3Cc2cccc(C(F)F)c2)c(Cl)c1", 5.36),
    ("C[C@H]1C[C@@H](Oc2ccc(S(=O)(=O)Nc3nccs3)cc2Cl)CCN1Cc1ccccc1 (relative stereo)", 5.17),
    ("C[C@@H]1C[C@@H](Oc2ccc(S(=O)(=O)Nc3nccs3)cc2Cl)CCN1Cc1ccccc1 (relative stereo)", 5.23),
    ("C[C@@H]1CN(Cc2ccccc2)C[C@@H]1Nc1ccc(S(=O)(=O)Nc2nccs2)cc1Cl (relative stereo)", 5.38),
    ("C[C@@H](c1ccccc1)N1CC[C@H](N(C)c2cc(F)c(S(=O)(=O)Nc3cccc(F)n3)cc2Cl)C1 [Example 43, 2,2,2-trifluoroacetate]", 5.10),
    ("C[C@@H]1[C@H](N(C)c2cc(F)c(S(=O)(=O)Nc3cscn3)cc2Cl)CCN1Cc1ccccc1 (racemic)", 5.07),
]
